Just for reference, ChEMBL document CHEMBL4152284 is where these values come from.

# study target: Acetylcholinesterase (Torpedo californica, UniProt P04058)
# Sequence (P04058 whole entry): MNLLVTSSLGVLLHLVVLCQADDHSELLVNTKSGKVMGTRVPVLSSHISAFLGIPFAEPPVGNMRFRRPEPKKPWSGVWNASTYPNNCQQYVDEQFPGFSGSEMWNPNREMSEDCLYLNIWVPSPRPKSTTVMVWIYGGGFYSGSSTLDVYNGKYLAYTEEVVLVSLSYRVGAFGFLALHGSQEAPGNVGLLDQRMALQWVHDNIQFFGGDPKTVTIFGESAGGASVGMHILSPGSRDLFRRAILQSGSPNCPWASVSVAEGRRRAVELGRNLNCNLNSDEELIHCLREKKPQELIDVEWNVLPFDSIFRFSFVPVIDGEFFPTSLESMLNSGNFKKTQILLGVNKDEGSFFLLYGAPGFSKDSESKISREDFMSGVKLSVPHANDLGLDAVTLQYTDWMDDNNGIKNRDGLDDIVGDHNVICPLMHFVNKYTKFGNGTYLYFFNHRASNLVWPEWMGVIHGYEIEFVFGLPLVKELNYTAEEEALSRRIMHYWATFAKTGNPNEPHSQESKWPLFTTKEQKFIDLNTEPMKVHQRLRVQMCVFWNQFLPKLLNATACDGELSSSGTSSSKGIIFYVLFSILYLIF
# method notes: Inhibition of Torpedo californica AChE using acetylthiocholine iodide as substrate preincubated for 10 mins followed by substrate addition measured for 5 mins by Ellman's method
# Assay type: single protein, Tetronarce californica
Listed here are molecules together with their documented IC50.
endpoint label: IC50 (µM)

>>> df
                                  structure  test_value
0  c1ccc(C[n+]2ccc(Cn3c4c(c5ccccc53)CCCC4)cc2)cc1          30
1  Clc1cccc(C[n+]2cccc(Cn3c4c(c5ccccc53)CCCC4)c2)c1          30
2  Clc1ccccc1C[n+]1ccc(Cn2c3c(c4ccccc42)CCCC3)cc1         6.5
3  Fc1ccccc1C[n+]1ccc(Cn2c3c(c4ccccc42)CCCC3)cc1          30
4  c1ccc(C[n+]2cccc(Cn3c4c(c5ccccc53)CCCC4)c2)cc1        48.1
5  Fc1ccc(C[n+]2cccc(Cn3c4c(c5ccccc53)CCCC4)c2)cc1        71.7
6  Clc1ccccc1C[n+]1cccc(Cn2c3c(c4ccccc42)CCCC3)c1        36.1
7  Fc1cccc(C[n+]2cccc(Cn3c4c(c5ccccc53)CCCC4)c2)c1        77.1
8  Cc1cccc(C[n+]2cccc(Cn3c4c(c5ccccc53)CCCC4)c2)c1        16.8
